These measurements were taken from patent US8466142B2.

Provide the recorded IC50 for the entries that follow.
# System: SKNLP
# ASSAY REMARKS: Alamar Blue proliferation (cytotoxicity) assay, SKNLP
# Assay type: cell-based
# EXPERIMENTAL CONDITIONS: Homo sapiens; SKNLP (neuroblastoma)

- CCC[C@]1(C(=O)O[C@@H]2C(OC)=C[C@]34CCCN3CCc3cc5c(cc3[C@H]24)OCO5)CC(=O)O1 [I-1]: 10 µM
- COC(=O)C[C@](O)(CCC(C)C)C(=O)O[C@@H]1C(OC)=C[C@]23CCCN2CCc2cc4c(cc2[C@H]13)OCO4 [Cmpd 2, Deoxyharringtonine, reference compound]: < 0.1 µM
- COC(=O)C[C@](O)(C/C=C/C(C)(C)OCc1ccccc1)C(=O)O[C@@H]1C(OC)=C[C@]23CCCN2CCc2cc4c(cc2[C@H]13)OCO4 [I-5]: < 0.01 µM
- COC(=O)C[C@@]1(C(=O)O[C@@H]2C(OC)=C[C@]34CCCN3CCc3cc5c(cc3[C@H]24)OCO5)CCC(C)(C)O1 [Cmpd 5, Anhydroharringtonine, reference compound]: 5.34 µM
- CCC[C@@](O)(CC(=O)OC)C(=O)O[C@@H]1C(OC)=C[C@]23CCCN2CCc2cc4c(cc2[C@H]13)OCO4 [I-4, Bis(de-methyl)-deoxyharringtonine]: 0.11 µM

Q) Item under review: COC1=C[C@]23CCCN2CCc2cc4c(cc2[C@@H]3[C@@H]1OC(=O)[C@@]1(CCC(C)C)CC(=O)O1)OCO4 [I-3a, Deoxyharringtonine, β-lactone] . Reported IC50?
A) 6.46 µM
